Molecular target: renin (Homo sapiens, UniProt P00797)
Construct: This test measures the formation of angiotensin I in human plasma
Sequence (P00797 67-406): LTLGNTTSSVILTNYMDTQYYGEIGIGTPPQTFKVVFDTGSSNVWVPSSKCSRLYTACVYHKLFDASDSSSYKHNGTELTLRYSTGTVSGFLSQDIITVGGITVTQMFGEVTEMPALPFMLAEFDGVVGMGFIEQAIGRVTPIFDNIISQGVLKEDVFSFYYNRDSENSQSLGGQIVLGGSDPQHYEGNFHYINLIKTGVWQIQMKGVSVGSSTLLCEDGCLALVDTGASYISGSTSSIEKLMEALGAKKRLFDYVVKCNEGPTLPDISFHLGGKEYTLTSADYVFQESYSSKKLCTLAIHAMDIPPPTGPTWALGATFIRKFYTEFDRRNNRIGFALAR
Test: in vitro test of Nussberger et al.: formation of angiotensin I in human plasma, determined by radio-immunoassay
Details: concentration of inhibitor which reduces the formation of angiotensin I in human plasma by 50%
Measurement Kind: pIC50
Hey, just a heads up that pIC50 is the negative log base 10 of the concentration in molar.

Some molecules with known pIC50 results, for comparison:
# Molecule, Assay Result
data = [
    ("COCCCCc1cc(CC(CC(N)C(O)CC(C(=O)NC2C3COCC32)C(C)C)C(C)C)cnc1OC (centres unmarked) [Example 36DDDD]", 8.51),
    ("COCCCCc1cc(CC(CC(N)C(O)CC(C(=O)NCC2CC23CCOCC3)C(C)C)C(C)C)cnc1OC (centres unmarked) [Example 36HHHH]", 8.54),
    ("COCCCCc1cc(CC(CC(N)C(O)CC(C(=O)NCC2CC23CCOCC3)C(C)C)C(C)C)cnc1OC (centres unmarked) [Example 36IIII]", 8.46),
    ("COCCCCc1cc(CC(CC(N)C(O)CC(C(=O)NCC2CCOCC2)C(C)C)C(C)C)cc(C)n1 (centres unmarked) [Example 32JJJ]", 8.59),
]

molecule COCCCCc1cc(CC(CC(N)C(O)CC(C(=O)NCC2C3COCC23)C(C)C)C(C)C)cnc1OC (centres unmarked) [Example 36BBBB] , pIC50 observed: 8.32
